Biological target: T1, human parathyroid hormone receptor (PTHR) (human, UniProt Q03431 27-593)
T1 construct: Assayed in membranes of HKRK-B7 cells or of transiently transfected COS-7 cells, or on intact HKRK-B7/HKRK-B64/COS-7 cells; RG = co-transfected with negative-dominant Galpha-s; R0 = receptor alone plus GTPgammaS; also called hPTHR; human PTH receptor
T1 sequence: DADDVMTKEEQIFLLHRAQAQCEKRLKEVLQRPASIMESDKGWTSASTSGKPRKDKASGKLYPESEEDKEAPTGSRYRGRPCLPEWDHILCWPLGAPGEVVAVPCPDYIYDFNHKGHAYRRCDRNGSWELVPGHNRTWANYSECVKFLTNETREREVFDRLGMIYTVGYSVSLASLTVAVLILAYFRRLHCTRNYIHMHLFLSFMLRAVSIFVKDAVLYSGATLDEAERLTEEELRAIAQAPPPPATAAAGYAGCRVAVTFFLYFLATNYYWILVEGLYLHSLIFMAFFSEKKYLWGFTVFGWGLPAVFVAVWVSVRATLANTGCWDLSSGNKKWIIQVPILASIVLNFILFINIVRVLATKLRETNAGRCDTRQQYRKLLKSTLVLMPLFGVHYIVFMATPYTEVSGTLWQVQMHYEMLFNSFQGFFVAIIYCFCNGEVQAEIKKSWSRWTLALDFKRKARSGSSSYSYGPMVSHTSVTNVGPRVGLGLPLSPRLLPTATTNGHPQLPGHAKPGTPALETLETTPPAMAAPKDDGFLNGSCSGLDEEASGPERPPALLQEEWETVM
Test: competition radioligand binding, human PIR RG
pIC50: −log10 of the molar value. Ends that are not written are not given here.

- Binder: "AVSEHQLLHDKGKSIQDERRRAFLHKLI-NH2 [E18,A22,K26-PTHrP(1-28)NH]"
  pIC50: 9.62
- Binder: "AVSEHQLLHDKGKSIQDERRRAFLLKLI-NH2 (also called EALK-PTHrP(1-28)) [E18,A22,L25,K26-PTHrP(1-28)NH]"
  pIC50: 10.00
- Binder: "AVSEHQLLHDKGKSIQDARRRAFLLKLIAE-NH2 [A18,22,L25,K26-PTHrP(1-30)NH]"
  pIC50: 10.30
- Binder: "AVSEHQLLHDKGKSIQDERRRAFLLKLIAE-NH2 (also called EALK-PTHrP(1-30)) [E18,A22,L25,K26-PTHrP(1-30)NH]"
  pIC50: 10.10
- Binder: "AVSEHQLLHDKGKSIQDARRRAFLLKLI-NH2 (not fully specified, also called [Ala^18,22,Leu^25,Lys^26]-PTHrP(1-28); AALK-PTHrP(1-28)) [A18,22,L25,K26-PTHrP(1-28)NH]"
  pIC50: 10.40
- Binder: "AVSEHQLLHDKGKSIQDARRRSFLLKLI-NH2 [A18,S22,L25,K26-PTHrP(1-28)NH]"
  pIC50: 10.00
- Binder: "AVSEHQLLHDKGKSIQDERRRSFLLKLI-NH2 [E18,S22,L25,K26-PTHrP(1-28)NH]"
  pIC50: 9.96
- Binder: "AVSEHQLLHDKGKSIQDARRRAFLHKLI-NH2 [A18,22,K26-PTHrP(1-28)NH]"
  pIC50: 10.00

Origin of values: patent US20110172153A1
